ASSAY SYSTEM: GST-Xa-hAAK1 (Homo sapiens, UniProt Q2M2I8)
Construct: GST (N); Factor Xa cleavage site (Xa) (internal); made in house
Sequence (Q2M2I8 whole entry): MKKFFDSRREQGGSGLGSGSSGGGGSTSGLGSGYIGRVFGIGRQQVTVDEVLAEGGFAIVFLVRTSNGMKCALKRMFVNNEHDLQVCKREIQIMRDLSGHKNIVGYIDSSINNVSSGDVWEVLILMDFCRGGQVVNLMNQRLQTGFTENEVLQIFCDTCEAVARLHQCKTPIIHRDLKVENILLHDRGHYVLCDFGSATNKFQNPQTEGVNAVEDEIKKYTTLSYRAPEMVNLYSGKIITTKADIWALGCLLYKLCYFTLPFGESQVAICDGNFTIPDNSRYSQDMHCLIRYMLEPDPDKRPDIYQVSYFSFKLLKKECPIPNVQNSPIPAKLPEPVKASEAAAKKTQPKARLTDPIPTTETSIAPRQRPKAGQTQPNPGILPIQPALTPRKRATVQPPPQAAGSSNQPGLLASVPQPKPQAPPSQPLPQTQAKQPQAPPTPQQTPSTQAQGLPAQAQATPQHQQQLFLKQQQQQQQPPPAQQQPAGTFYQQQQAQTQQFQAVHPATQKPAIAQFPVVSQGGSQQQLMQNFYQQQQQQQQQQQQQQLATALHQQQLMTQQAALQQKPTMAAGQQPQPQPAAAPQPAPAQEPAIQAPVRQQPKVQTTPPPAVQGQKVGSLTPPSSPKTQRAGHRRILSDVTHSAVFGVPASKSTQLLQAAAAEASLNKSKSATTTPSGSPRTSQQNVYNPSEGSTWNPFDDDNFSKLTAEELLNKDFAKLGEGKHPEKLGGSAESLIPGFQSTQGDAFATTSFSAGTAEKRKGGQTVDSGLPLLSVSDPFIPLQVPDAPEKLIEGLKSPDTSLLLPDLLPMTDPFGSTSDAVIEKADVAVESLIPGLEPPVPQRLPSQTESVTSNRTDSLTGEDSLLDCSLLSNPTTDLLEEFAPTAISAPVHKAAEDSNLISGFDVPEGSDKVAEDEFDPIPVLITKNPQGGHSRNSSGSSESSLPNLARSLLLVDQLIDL
TEST METHOD NOTES: AAK1 Kinase Assay
Format: biochemical
RECORDED CONDITIONS: bacterially expressed GST-Xa-hAAK1 3.5 nM; ATP 22 μM; fluoresceinated peptide 1.5 μM; 3 hours at room temperature; Caliper LabChip 3000
pIC50: −log10 of the molar value.
# pIC50 >= 8 gives yes (1), anything below gives no (0)

{"COMPOUND": "Cc1nc(-c2ccc(OC[C@@](C)(N)CC(C)C)c(C(F)(F)F)c2)c2ccsc2n1", "ASSAY SYSTEM": "GST-Xa-hAAK1 (Homo sapiens, UniProt Q2M2I8)", "CLASS ASSIGNMENT": "no (0)"}
{"COMPOUND": "CC(C)C[C@](C)(N)COc1ccc(-c2ccnc(NC(=O)c3cnccn3)c2)cc1C(F)(F)F", "ASSAY SYSTEM": "GST-Xa-hAAK1 (Homo sapiens, UniProt Q2M2I8)", "CLASS ASSIGNMENT": "yes (1)"}
{"COMPOUND": "CCN1Cc2nccc(-c3ccc(OC[C@@](C)(N)CC(C)C)c(C(F)(F)F)c3)c2C1=O", "ASSAY SYSTEM": "GST-Xa-hAAK1 (Homo sapiens, UniProt Q2M2I8)", "CLASS ASSIGNMENT": "no (0)"}
{"COMPOUND": "Cc1nc2c(-c3ccc(OC[C@@](C)(N)CC(C)C)c(Cl)c3)ccnc2[nH]1", "ASSAY SYSTEM": "GST-Xa-hAAK1 (Homo sapiens, UniProt Q2M2I8)", "CLASS ASSIGNMENT": "no (0)"}
{"COMPOUND": "CC(C)C[C@](C)(N)COc1ccc(-c2ccnc(NC(=O)c3nccs3)c2)cc1Cl", "ASSAY SYSTEM": "GST-Xa-hAAK1 (Homo sapiens, UniProt Q2M2I8)", "CLASS ASSIGNMENT": "yes (1)"}
{"COMPOUND": "CC(C)C[C@](C)(N)COc1ccc(-c2ccnc3[nH]ncc23)cc1Cl", "ASSAY SYSTEM": "GST-Xa-hAAK1 (Homo sapiens, UniProt Q2M2I8)", "CLASS ASSIGNMENT": "yes (1)"}
{"COMPOUND": "CC(C)C[C@](C)(N)COc1ccc(-c2ccnc(NC(=O)c3nccs3)c2)cc1C#N", "ASSAY SYSTEM": "GST-Xa-hAAK1 (Homo sapiens, UniProt Q2M2I8)", "CLASS ASSIGNMENT": "yes (1)"}
{"COMPOUND": "CC(C)C[C@](C)(N)COc1ccc(-c2ccnc(NC(=O)c3cc(C(C)C)[nH]n3)c2)cc1C(F)(F)F", "ASSAY SYSTEM": "GST-Xa-hAAK1 (Homo sapiens, UniProt Q2M2I8)", "CLASS ASSIGNMENT": "yes (1)"}
{"COMPOUND": "CC(C)C[C@](C)(N)COc1ccc(-c2cc(N)nc3ccnn23)c(F)c1", "ASSAY SYSTEM": "GST-Xa-hAAK1 (Homo sapiens, UniProt Q2M2I8)", "CLASS ASSIGNMENT": "no (0)"}
{"COMPOUND": "CC(C)C[C@](C)(N)COc1ccc(-c2ccnc(NC3CCCOC3)c2)cc1C(F)(F)F (single isomer, unassigned) [Example 477]", "ASSAY SYSTEM": "GST-Xa-hAAK1 (Homo sapiens, UniProt Q2M2I8)", "CLASS ASSIGNMENT": "no (0)"}
{"COMPOUND": "CC(C)C[C@](C)(N)COc1ccc(-c2ccnc3c2C(=O)N(C)C3)cc1Cl", "ASSAY SYSTEM": "GST-Xa-hAAK1 (Homo sapiens, UniProt Q2M2I8)", "CLASS ASSIGNMENT": "no (0)"}
{"COMPOUND": "CC(C)C[C@](C)(N)COc1ccc(-c2ccnc(NC(=O)C3CCCC3)c2)cc1C(F)(F)F", "ASSAY SYSTEM": "GST-Xa-hAAK1 (Homo sapiens, UniProt Q2M2I8)", "CLASS ASSIGNMENT": "yes (1)"}
{"COMPOUND": "Cc1cc(-c2ccnc(NC3CC3)n2)ccc1OC[C@@](C)(N)CC(C)C", "ASSAY SYSTEM": "GST-Xa-hAAK1 (Homo sapiens, UniProt Q2M2I8)", "CLASS ASSIGNMENT": "yes (1)"}
{"COMPOUND": "CC(C)C[C@](C)(N)COc1ccc(-c2ccnn3cc(C4CC4)nc23)cc1C#N", "ASSAY SYSTEM": "GST-Xa-hAAK1 (Homo sapiens, UniProt Q2M2I8)", "CLASS ASSIGNMENT": "yes (1)"}
{"COMPOUND": "CC(C)C[C@](C)(N)COc1ccc(-c2ccnc3c2C(=O)N(C)C3)cc1F", "ASSAY SYSTEM": "GST-Xa-hAAK1 (Homo sapiens, UniProt Q2M2I8)", "CLASS ASSIGNMENT": "no (0)"}
{"COMPOUND": "CC(C)C[C@](C)(N)COc1ccc(-c2ccnc3[nH]ncc23)cc1F", "ASSAY SYSTEM": "GST-Xa-hAAK1 (Homo sapiens, UniProt Q2M2I8)", "CLASS ASSIGNMENT": "yes (1)"}
{"COMPOUND": "Cc1nccc(-c2ccc(OC[C@@](C)(N)CC(C)C)c3ncsc23)n1", "ASSAY SYSTEM": "GST-Xa-hAAK1 (Homo sapiens, UniProt Q2M2I8)", "CLASS ASSIGNMENT": "no (0)"}
{"COMPOUND": "Cc1cc(-c2ccnc3c2C(=O)N(C)C3)ccc1OC[C@@](C)(N)CC(C)C", "ASSAY SYSTEM": "GST-Xa-hAAK1 (Homo sapiens, UniProt Q2M2I8)", "CLASS ASSIGNMENT": "no (0)"}
{"COMPOUND": "Cc1ncccc1C(=O)Nc1cc(-c2ccc(OC[C@@](C)(N)CC(C)C)c(C(F)(F)F)c2)ccn1", "ASSAY SYSTEM": "GST-Xa-hAAK1 (Homo sapiens, UniProt Q2M2I8)", "CLASS ASSIGNMENT": "yes (1)"}
{"COMPOUND": "CC(C)C[C@](C)(N)COc1ncc(-c2ccnc3ccnn23)cc1Cl", "ASSAY SYSTEM": "GST-Xa-hAAK1 (Homo sapiens, UniProt Q2M2I8)", "CLASS ASSIGNMENT": "yes (1)"}
{"COMPOUND": "CC(C)C[C@](C)(N)COc1ccc(-c2cc(Cl)nn3cc(C4CC4)nc23)cc1C(F)(F)F", "ASSAY SYSTEM": "GST-Xa-hAAK1 (Homo sapiens, UniProt Q2M2I8)", "CLASS ASSIGNMENT": "no (0)"}
{"COMPOUND": "CC(C)C[C@](C)(N)COc1ccc(-c2ccnc(NC(=O)CC3CCCC3)c2)cc1C(F)(F)F", "ASSAY SYSTEM": "GST-Xa-hAAK1 (Homo sapiens, UniProt Q2M2I8)", "CLASS ASSIGNMENT": "yes (1)"}
{"COMPOUND": "CC(C)C[C@](C)(N)COc1ccc(-c2ccnc3cc[nH]c23)cc1C(F)(F)F", "ASSAY SYSTEM": "GST-Xa-hAAK1 (Homo sapiens, UniProt Q2M2I8)", "CLASS ASSIGNMENT": "yes (1)"}
{"COMPOUND": "CC(C)C[C@](C)(N)COc1ccc(-c2ccnc3ccnn23)cc1C(F)(F)F", "ASSAY SYSTEM": "GST-Xa-hAAK1 (Homo sapiens, UniProt Q2M2I8)", "CLASS ASSIGNMENT": "yes (1)"}
{"COMPOUND": "CC(C)C[C@](C)(N)COc1ccc(-c2cc(NC3CCOC3)ncn2)cc1C(F)(F)F (stereo partly drawn)", "ASSAY SYSTEM": "GST-Xa-hAAK1 (Homo sapiens, UniProt Q2M2I8)", "CLASS ASSIGNMENT": "no (0)"}
{"COMPOUND": "Cc1cc(C(=O)Nc2cc(-c3ccc(OC[C@@](C)(N)CC(C)C)c(C(F)(F)F)c3)ccn2)no1", "ASSAY SYSTEM": "GST-Xa-hAAK1 (Homo sapiens, UniProt Q2M2I8)", "CLASS ASSIGNMENT": "yes (1)"}
{"COMPOUND": "CC(C)C[C@](C)(N)COc1ccc(-c2ccnc3ccnn23)cc1F", "ASSAY SYSTEM": "GST-Xa-hAAK1 (Homo sapiens, UniProt Q2M2I8)", "CLASS ASSIGNMENT": "yes (1)"}
{"COMPOUND": "CC(C)C[C@](C)(N)COc1ccc(-c2ncnc3[nH]ccc23)cc1C#N", "ASSAY SYSTEM": "GST-Xa-hAAK1 (Homo sapiens, UniProt Q2M2I8)", "CLASS ASSIGNMENT": "yes (1)"}
{"COMPOUND": "Cc1cc(-c2ccnc3ccnn23)cnc1OC[C@](C)(N)CC(C)C", "ASSAY SYSTEM": "GST-Xa-hAAK1 (Homo sapiens, UniProt Q2M2I8)", "CLASS ASSIGNMENT": "no (0)"}
